targetOrSystem: UniProt:P31639
Sequence (P31639 whole entry): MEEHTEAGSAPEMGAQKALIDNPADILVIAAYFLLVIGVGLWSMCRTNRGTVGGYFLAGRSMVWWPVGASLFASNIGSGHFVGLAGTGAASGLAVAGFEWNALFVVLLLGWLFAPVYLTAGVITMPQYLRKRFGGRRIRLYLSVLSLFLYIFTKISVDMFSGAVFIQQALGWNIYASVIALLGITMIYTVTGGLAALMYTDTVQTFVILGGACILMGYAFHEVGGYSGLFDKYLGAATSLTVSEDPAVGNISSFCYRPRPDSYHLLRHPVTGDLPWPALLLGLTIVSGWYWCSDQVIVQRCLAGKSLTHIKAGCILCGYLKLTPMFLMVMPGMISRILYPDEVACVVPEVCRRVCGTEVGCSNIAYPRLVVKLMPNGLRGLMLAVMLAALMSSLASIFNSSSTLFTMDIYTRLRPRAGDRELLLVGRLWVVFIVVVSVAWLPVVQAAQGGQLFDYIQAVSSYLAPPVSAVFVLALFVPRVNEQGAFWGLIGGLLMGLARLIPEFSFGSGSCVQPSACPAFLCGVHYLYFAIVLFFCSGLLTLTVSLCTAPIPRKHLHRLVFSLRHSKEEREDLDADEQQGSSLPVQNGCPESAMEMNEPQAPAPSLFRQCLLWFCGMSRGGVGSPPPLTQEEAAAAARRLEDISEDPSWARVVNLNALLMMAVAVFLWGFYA
testSummary: In vitro SGLT2 inhibitory activity: 1-NBDG uptake by CHO-SGLT2 cells
appliedConditions: CHO-SGLT2 cells, 1-NBDG uptake; read-out: IC50 inhibiting SGLT2
Entries whose IC50 is below 1 nM take true; entries at or above 1 nM take false.

CS[C@H]1O[C@@H](c2cc3c(c(Cc4ccc5c(c4)OCCO5)c2)CCC3)[C@H](O)[C@@H](O)[C@@H]1O [Compound 5]; false
CCOc1ccc(Oc2cc([C@H]3O[C@H](CO)[C@@H](O)[C@H](O)[C@H]3O)ccc2Cl)cc1 [Compound 3]; false
CS[C@H]1O[C@@H](c2ccc(C)c(Cc3ccc4c(c3)CCCO4)c2)[C@H](O)[C@@H](O)[C@@H]1O [Compound 8]; true
OC[C@H]1O[C@@H](c2ccc(F)c(Cc3ccc4c(c3)OCCO4)c2)[C@H](O)[C@@H](O)[C@@H]1O [Compound 27]; false

Now consider the entry below.
Ask: Item CS[C@H]1O[C@@H](c2ccc(C)c(Cc3ccc4c(c3)OCCO4)c2)[C@H](O)[C@@H](O)[C@@H]1O (stereo in doubt) [Compound 2] : IC50 beneath 1 nM, strictly?
Result: true
